Some molecules, each annotated with its measured Population Apoptotic (%).
# System: U2OS
# Experiment Notes: Multiplex assay against U2OS
# Type: toxicity, cell-based
# Assay Setup: human, 24 h, 10 µM, compound concentration 10 uM, replicate 2
A number alone suffices; assume %.

Illustrative cases are given below, each with its answer.
1) CC(Cc1ccc(O)c(O)c1)C(C)Cc1ccc(O)c(O)c1 (stereo not drawn) [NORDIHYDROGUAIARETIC ACID] | 16
2) CC[C@H](Nc1ncnc2[nH]cnc12)c1nc2cccc(F)c2c(=O)n1-c1ccccc1 | 40
3) CCOc1ccn(-c2ccc(F)cc2)c(=O)c1C(=O)Nc1ccc(Oc2ccnc(N)c2Cl)c(F)c1 | 12
4) Cl.Cn1c2c(c3ccc(Cl)c(Cl)c31)C(C#N)C1(CCNCC1)NC2=O (stereo not drawn) | 76
5) Cc1ccc(NC(=O)Nc2cc(C(F)(F)F)ccc2F)cc1Nc1ccc2c(c1)NC(=O)/C2=C\c1ccc[nH]1 | 16

Can you look up the measured Population Apoptotic (%) of CC(C)[C@H](CO)Nc1nc(Nc2cccc(Cl)c2)c2ncn(C(C)C)c2n1 for me?
80

Can you look up the measured Population Apoptotic (%) of CC[C@@H]1C(=O)N(C)c2cnc(Nc3ccc(C(=O)NC4CCN(C)CC4)cc3OC)nc2N1C1CCCC1 for me?
88

Can you look up the measured Population Apoptotic (%) of CN(c1cc(C(F)(F)F)nc(OCCC(=O)O)n1)c1cccc2c1CCC2 for me?
0
